Origin of values: the Deep4Chem optical property database

- procedure_summary: solvent given as SMILES
- experimental_conditions: in [2H]O[2H]
Assign condition met whenever fluorescence lifetime does not fall below 2 ns; assign condition not met whenever it does.

Does the molecule `N#Cc1cccc2[nH]ccc12` have recorded fluorescence lifetime that is 2 ns or more?
condition met

API: above_or_equal(metric=fluorescence lifetime, cutoff=2 ns) for item `CCNc1cc2oc3c/c(=[NH+]\CC)c(C)cc-3c(-c3ccccc3C(=O)OCC)c2cc1C`
condition met

Can CCN(CC)c1ccc2c(c1)OC1=CC(N(CC)CC)C=CC1[C+]2c1ccccc1C(=O)O (stereo not given) be said to have fluorescence lifetime at or above 2 ns?
condition not met

Is the recorded value of fluorescence lifetime equal to or greater than 2 ns for this molecule? `O=C([O-])c1ccccc1C1=c2cc3c4c(c2Oc2c1cc1c5c2CCCN5CCC1)CCC[N+]=4CCC3`
condition met

Say whether `CCN(CC)c1ccc2c(-c3ccccc3C(=O)[O-])c3ccc(=[N+](CC)CC)cc-3oc2c1` shows fluorescence lifetime of 2 ns or more.
condition not met
